Assay: VP16 transactivation reporter inhibitors, counter-screen for LRH-1 inverse agonist project, cell-based, luminescence, high throughput (AID 651615)
Details: Gal4-VP16 luciferase reporter cells, at 3.6 µM, stronger effect = higher value
READOUT_LABEL: inhibition (%)
Write the number in % without appending the unit.

Sample records with inhibition:
COMPOUND	UNITS_OF_MEASURE	MEASURED_VALUE
Cc1cccc(C(=O)Nc2sc3c(c2C(=O)O)CCCC3)c1	%	68.9
C(=NNc1ccc2ccccc2n1)c1ccccn1	%	-44.1
CCCc1cc(=O)oc2cc(C)cc(OCC(=O)Nc3ccccn3)c12	%	3.1
Cn1cc(Cl)c(C(=O)OCC(=O)Nc2ccc(S(N)(=O)=O)cc2)n1	%	-12.4
COc1ccc(C(=O)Nc2ccccc2C(=O)N/N=C/c2ccc(O)c(OC)c2)cc1	%	-41.2

Input O=C(NCc1ccco1)c1cccc(NC(=O)c2ccccc2)c1 , output reported inhibition.
69.5

Input NC(=O)c1cc2ccncc2c2ccccc12 , output reported inhibition.
77.2

Input CC1(C)CC(N2CCCC2)=CC(=[N+]2CCCC2)C1 , output reported inhibition.
51.4

Input CC(C)Cn1c(N)c(C(=O)NCC2CCCO2)c2nc3ccccc3nc21 (centres undefined) , output reported inhibition.
1.28

---

Molecular target: Nuclear receptor coactivator 3 (Homo sapiens)
Assay: SRC3 coactivator transcriptional activity inhibitors, confirmation, cell-based, luminescence, quadruplicate (AID 588792);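 further: 0% = DMSO treated cells and 100% = gossypol at 36 µM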
Details: HEK293 GAL4-SRC3 luciferase reporter, at 3.6 µM, stronger effect = higher value
READOUT_LABEL: inhibition (%)
Write the number in % without appending the unit.

COMPOUND	SYSTEM_NAME	MEASURED_VALUE
O=C(c1cncc(Br)c1)N1CCc2ccccc2C1	Nuclear receptor coactivator 3 (Homo sapiens)	46.3
Cn1c(CCN2CCN(c3ccccn3)CC2)nc2cc(NC(=O)COc3ccc(Cl)cc3)ccc21	Nuclear receptor coactivator 3 (Homo sapiens)	18
COc1cccc(/C=N/NC(=O)c2cc(-c3cccn3C)n[nH]2)c1O	Nuclear receptor coactivator 3 (Homo sapiens)	41.2
CCCn1c(N)c(C(=O)CSc2ncc(C(F)(F)F)cc2Cl)c(=O)[nH]c1=O	Nuclear receptor coactivator 3 (Homo sapiens)	14.6
Cc1nc2c(-c3ccc(F)cc3)cnn2c(N)c1-c1ccc(F)cc1	Nuclear receptor coactivator 3 (Homo sapiens)	12
Cc1cc(/C=C2\SC(=S)N(C)C2=O)c(C)n1-c1ccc(O)cc1	Nuclear receptor coactivator 3 (Homo sapiens)	73.9
Cc1ccccc1CN1CC2=C(CCN(Cc3ccccc3)C2=O)N2CCN=C12	Nuclear receptor coactivator 3 (Homo sapiens)	47.9
O=C(Nc1cccc(S(=O)(=O)Nc2ccccc2Cl)c1)c1ccc(Cl)nc1	Nuclear receptor coactivator 3 (Homo sapiens)	-1.42

Input CC(C)(C)c1ccc(C(=O)NC(=S)Nc2nc3c(s2)CCCC3)cc1 , output reported inhibition.
20.4

Input CO[C@@]12[C@@H]3N[C@@H]3CN1C1=C(C(=O)C(N)=C(C)C1=O)[C@@H]2COC(N)=O , output reported inhibition.
35.1

Input Cc1cc(C)nc(/N=C(\N)Nc2ccc(OCCC(C)C)cc2)n1 , output reported inhibition.
-1.86

Input COc1ccccc1NS(=O)(=O)c1cc(NC(=O)c2ccc(Cl)nc2)ccc1Cl , output reported inhibition.
9.43

Input CCOc1cc(/C=C2\CN(C)C/C(=C\c3ccc(O)c(OCC)c3)C2=O)ccc1O , output reported inhibition.
56.2

Input CC(C)(C)NC(=O)C(c1ccncc1)N(Cc1cccs1)C(=O)Cn1nnc(-c2ccc(F)cc2)n1 (configuration not stated) , output reported inhibition.
59.4

Input COCC1CCN(C(=O)c2cc(COc3cccc4cnccc34)on2)CC1 , output reported inhibition.
11.1

Input CCOc1ccc(-c2noc(CCC(=O)O)n2)cc1 , output reported inhibition.
18.2

Input COc1ccccc1-c1nnc(Sc2nc([N+](=O)[O-])nn2C)o1 , output reported inhibition.
58.5
